Recorded measurements of IC50, one per entry
target: PHGDH (Homo sapiens (Human), UniProt O43175); experiment: PHGDH inhibition, coupled assay with PSAT1/PSPH and diaphorase/resazurin readout; settings: Table E9; mixture with PSAT1, PSPH; diaphorase/resazurin reporter
Sequence (O43175 whole entry): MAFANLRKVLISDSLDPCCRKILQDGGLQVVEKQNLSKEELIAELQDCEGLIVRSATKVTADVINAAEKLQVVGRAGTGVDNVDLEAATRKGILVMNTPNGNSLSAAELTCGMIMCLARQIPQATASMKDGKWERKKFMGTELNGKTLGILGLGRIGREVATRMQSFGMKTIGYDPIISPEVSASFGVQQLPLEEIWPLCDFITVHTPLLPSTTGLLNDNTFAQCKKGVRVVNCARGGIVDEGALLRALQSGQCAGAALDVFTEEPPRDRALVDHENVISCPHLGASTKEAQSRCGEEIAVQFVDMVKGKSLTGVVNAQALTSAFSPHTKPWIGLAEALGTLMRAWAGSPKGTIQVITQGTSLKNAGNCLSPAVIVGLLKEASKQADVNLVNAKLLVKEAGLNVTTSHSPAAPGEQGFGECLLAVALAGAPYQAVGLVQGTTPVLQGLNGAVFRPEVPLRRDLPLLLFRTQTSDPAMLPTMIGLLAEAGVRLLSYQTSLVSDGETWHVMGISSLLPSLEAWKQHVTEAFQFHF

# count of solved cases: 3
{"MOL_SMILES": "COc1ccnc(NC(=S)N2CCN(c3cccc(C(F)(F)F)n3)CC2)c1", "MEAS_VALUE": "5 to 10 µM"}
{"MOL_SMILES": "Cc1cc(C)nc(NC(=S)N2CCN(c3ccc4nsnc4c3)CC2)c1", "MEAS_VALUE": "10 to 20 µM"}
{"MOL_SMILES": "Cc1cc(C)nc(NC(=S)N2CCN(c3ccc4ncccc4c3[N+](=O)[O-])CC2)c1", "MEAS_VALUE": "10 to 20 µM"}

**Query** Which IC50 is reported for this compound? `Cc1cc(C)nc(NC(=S)N2CCN(Cc3ccc(F)cc3)CC2)c1`
**Result** 10 to 20 µM

**Query** Then this compound: `Cc1cncc(NC(=S)N2CCN(c3cccc(C(F)(F)F)c3)CC2)c1`
**Result** 5 to 10 µM

**Query** Then this compound: `Cc1ccnc(NC(=S)NCCN(C)c2cccc(C(F)(F)F)c2)c1`
**Result** ≥ 20 µM

**Query** Then this compound: `Cc1ccnc(NC(=S)N2CCc3ccccc3C2)c1`
**Result** ≥ 20 µM

**Query** Then this compound: `S=C(Nc1cc(Cl)ccn1)N1CCN(c2ccc(Cl)c(Cl)c2)CC1`
**Result** 10 to 20 µM

**Query** Then this compound: `Cc1cc(C)nc(NC(=S)N2CCC(Cc3ccccc3)CC2)c1`
**Result** < 5 µM

**Query** Then this compound: `Cc1cc(C)nc(NC(=S)N2CCN(C3CCCCC3)CC2)c1`
**Result** 10 to 20 µM

**Query** Then this compound: `S=C(Nc1cc(Cl)ccn1)N1CCN(c2ccc(Cl)cc2Cl)CC1`
**Result** ≥ 20 µM

**Query** Then this compound: `Cc1cc(C)nc(NC(=S)N2CCN(c3ccccc3C#N)CC2)c1`
**Result** 10 to 20 µM

**Query** Then this compound: `Cc1cc(C)nc(NC(=S)N2CCN(C(=O)c3cccc(C(F)(F)F)c3)CC2)c1`
**Result** 5 to 10 µM

**Query** Then this compound: `COc1cccc(NC(=S)N2CCN(c3ccc(Cl)cc3Cl)CC2)n1`
**Result** < 5 µM

**Query** Then this compound: `Cc1cc(C)nc(NC(=S)N2CCN(Cc3cccc(Br)c3)CC2)c1`
**Result** 10 to 20 µM

**Query** Then this compound: `Cc1cc(C)nc(NC(=S)N2CCN(Cc3ccccc3C)CC2)c1`
**Result** ≥ 20 µM

**Query** Then this compound: `N=C(NC(=S)N1CCN(c2cccc(C(F)(F)F)c2)CC1)c1ccccn1`
**Result** ≥ 20 µM

**Query** Then this compound: `Cc1cc(C)nc(NC(=S)N2CCN(c3cc(Cl)c(Cl)c(Cl)c3)CC2)c1`
**Result** ≥ 20 µM

----------
Recorded measurements of pIC50, one per entry
molecular target: PHGDH (Homo sapiens (Human), UniProt O43175); test: PHGDH inhibition, coupled assay with PSAT1/PSPH and diaphorase/resazurin readout; type: biochemical; settings: Table E9; mixture with PSAT1, PSPH; diaphorase/resazurin reporter
pIC50: −log10 of the molar value.

{"MOLECULE": "Cc1cc(C)nc(NC(=S)N2CCN(Cc3ccc(C(F)(F)F)cc3)C(c3ccccc3)C2)c1 (stereo not drawn)", "MEAS_VALUE": "4.70 to 5.00"}
{"MOLECULE": "Cc1ccnc(NC(=S)N2CCNCC2)c1", "MEAS_VALUE": "≤ 4.70"}
{"MOLECULE": "Cc1ccnc(NC(=S)N[C@H]2CCN(c3cccc(C(F)(F)F)c3)C2)c1", "MEAS_VALUE": "≤ 4.70"}
{"MOLECULE": "FC(F)(F)c1cccc(N2CCN(C(=S)Nc3nc4ccc(C(F)(F)F)cc4[nH]3)CC2)c1", "MEAS_VALUE": "5.00 to 5.30"}
{"MOLECULE": "Cc1ccnc(NC(=S)N2CCN(c3ccc(Br)cc3)CC2)c1", "MEAS_VALUE": "≤ 4.70"}
{"MOLECULE": "Cc1cc(C)nc(NC(=S)N2CCN(c3nccc4ccccc34)CC2)c1", "MEAS_VALUE": "4.70 to 5.00"}
{"MOLECULE": "O=C(Nc1cccc([S+](=O)([O-])Nc2ccccc2F)c1)c1cccs1", "MEAS_VALUE": "≤ 4.70"}
{"MOLECULE": "Cc1cc(C)nc(NC(=S)N2CCN(c3cc(Cl)cc(Cl)n3)CC2)c1", "MEAS_VALUE": "≤ 4.70"}

**Query** Which pIC50 is reported for this molecule? `FC(F)(F)c1cccc(N2CCN(C(=S)Nc3nc(-c4ccccc4)c[nH]3)CC2)c1`
**Result** > 5.30

**Query** Then this molecule: `Cc1cc(C)nc(NC(=S)N2CCN(c3ccc(Cl)c(Cl)c3Cl)CC2)c1`
**Result** ≤ 4.70

**Query** Then this molecule: `CN(C)c1ccc2nc(NC(=S)N3CCN(c4cccc(C(F)(F)F)c4)CC3)sc2c1`
**Result** ≤ 4.70

**Query** Then this molecule: `Cc1cc(C)nc(NC(=S)N2CCN(c3ccc4c(c3)OCO4)CC2)c1`
**Result** ≤ 4.70

**Query** Then this molecule: `Cc1cc(C)nc(NC(=S)N2CCN(c3nccc4ccsc34)CC2)c1`
**Result** ≤ 4.70

**Query** Then this molecule: `Cc1cc(C)nc(NC(=S)N2CCN(c3ncc(C(F)(F)F)cc3Cl)CC2)c1`
**Result** 5.00 to 5.30

**Query** Then this molecule: `Cc1cc(C)nc(NC(=S)N2CCN(c3ccc4nonc4c3)CC2)c1`
**Result** ≤ 4.70

**Query** Then this molecule: `Cc1ccnc(NC(=S)N2CCc3cc(C(F)(F)F)ccc3C2)c1`
**Result** 4.70 to 5.00

**Query** Then this molecule: Cc1cc2nc(NC(=S)N3CCN(c4cccc(C(F)(F)F)c4)CC3)[nH]c2cc1C [Compound 241]
**Result** ≤ 4.70

**Query** Then this molecule: `COc1cccc(NC(=S)N2CCN(c3ccccc3C(F)(F)F)CC2)n1`
**Result** > 5.30

Origin of values: patent US11225469B2
